Items are presented alongside their recorded cell viability of combination.
System: UCD52 (cells of a triple-negative basal-like breast cancer xenograft)
Experiment: cell viability of combination (% of vehicle); higher = less cytotoxic
Details: 1 µM; 72 h; partner dose: 10 nM
endpoint: cell viability of combination

{"compound": "CCN(CC)CCNC(=O)c1c(C)[nH]c(C=C2C(=O)Nc3ccc(F)cc32)c1C [Sunitinib] + CC(C)C[C@H](NC(=O)[C@H](CCc1ccccc1)NC(=O)CN1CCOCC1)C(=O)N[C@@H](Cc1ccccc1)C(=O)N[C@@H](CC(C)C)C(=O)[C@@]1(C)CO1", "assay.result": 59.3}
{"compound": "COc1cccc2c1C(=O)c1c(O)c3c(c(O)c1C2=O)CC(O)(C(=O)CO)CC3OC1CC(N)C(O)C(C)O1.Cl (stereo not given) [Epirubicin HCl] + CC(C)C[C@H](NC(=O)[C@H](CCc1ccccc1)NC(=O)CN1CCOCC1)C(=O)N[C@@H](Cc1ccccc1)C(=O)N[C@@H](CC(C)C)C(=O)[C@@]1(C)CO1", "assay.result": 21}
{"compound": "CC(C)Nc1cc(-c2c[nH]c(C(=O)NC(CO)c3cccc(Cl)c3)c2)c(Cl)cn1 (stereo not given) + CC(C)C[C@H](NC(=O)[C@H](CCc1ccccc1)NC(=O)CN1CCOCC1)C(=O)N[C@@H](Cc1ccccc1)C(=O)N[C@@H](CC(C)C)C(=O)[C@@]1(C)CO1", "assay.result": 48.9}
{"compound": "CNC(=O)c1cc(Oc2ccc(NC(=O)Nc3ccc(Cl)c(C(F)(F)F)c3)cc2)ccn1.Cc1ccc(S(=O)(=O)O)cc1 [Sorafenib Tosylate] + CC(C)C[C@H](NC(=O)[C@H](CCc1ccccc1)NC(=O)CN1CCOCC1)C(=O)N[C@@H](Cc1ccccc1)C(=O)N[C@@H](CC(C)C)C(=O)[C@@]1(C)CO1", "assay.result": 52.6}
{"compound": "CC(C)CC(NC(=O)CNC(=O)c1cc(Cl)ccc1Cl)B(O)O (stereo not given) + CC(C)C[C@H](NC(=O)[C@H](CCc1ccccc1)NC(=O)CN1CCOCC1)C(=O)N[C@@H](Cc1ccccc1)C(=O)N[C@@H](CC(C)C)C(=O)[C@@]1(C)CO1", "assay.result": 19.8}
{"compound": "CC(O)C(=O)O.CC(O)C(=O)O.CN1CCN(c2ccc3c(c2)NC(=C2C(=O)N=c4cccc(F)c4=C2N)N3)CC1 [Dovitinib Dilactic acid] + CC(C)C[C@H](NC(=O)[C@H](CCc1ccccc1)NC(=O)CN1CCOCC1)C(=O)N[C@@H](Cc1ccccc1)C(=O)N[C@@H](CC(C)C)C(=O)[C@@]1(C)CO1", "assay.result": 88.8}
{"compound": "CC[C@@]1(O)C(=O)OCc2c1cc1n(c2=O)Cc2cc3c(CN(C)C)c(O)ccc3nc2-1 [Topotecan] + CC(C)C[C@H](NC(=O)[C@H](CCc1ccccc1)NC(=O)CN1CCOCC1)C(=O)N[C@@H](Cc1ccccc1)C(=O)N[C@@H](CC(C)C)C(=O)[C@@]1(C)CO1", "assay.result": 57.9}
{"compound": "CC(C)CC(NC(=O)C(NC(=O)c1cccc(-c2ccccc2)n1)C(C)O)B(O)O (stereo not given) + CC(C)C[C@H](NC(=O)[C@H](CCc1ccccc1)NC(=O)CN1CCOCC1)C(=O)N[C@@H](Cc1ccccc1)C(=O)N[C@@H](CC(C)C)C(=O)[C@@]1(C)CO1", "assay.result": 20.1}
{"compound": "Oc1c(Cl)cc(Cl)c2cccnc12 [Chloroxine] + CC(C)C[C@H](NC(=O)[C@H](CCc1ccccc1)NC(=O)CN1CCOCC1)C(=O)N[C@@H](Cc1ccccc1)C(=O)N[C@@H](CC(C)C)C(=O)[C@@]1(C)CO1", "assay.result": 62.4}
{"compound": "Cc1nc(Nc2ncc(C(=O)Nc3c(C)cccc3Cl)s2)cc(N2CCN(CCO)CC2)n1 + CC(C)C[C@H](NC(=O)[C@H](CCc1ccccc1)NC(=O)CN1CCOCC1)C(=O)N[C@@H](Cc1ccccc1)C(=O)N[C@@H](CC(C)C)C(=O)[C@@]1(C)CO1", "assay.result": 32.4}

* * *

Tested on: HCI09 (cells of a triple-negative luminal androgen receptor type breast cancer xenograft)
Experiment: cell viability (% of vehicle); higher = less cytotoxic
Conditions: 10 µM; 72 h
Could you mark each record satisfied if its cell viability falls strictly under 100, and not satisfied if it equals or exceeds it?

{"compound": "CC1=C(C(=O)OC(C)C)C(c2cccc([N+](=O)[O-])c2)C(C(=O)OC2CN(C(c3ccccc3)c3ccccc3)C2)=C(N)N1 (centres undefined)", "subject.of.test": "HCI09", "answer.label": "satisfied"}
{"compound": "CC1OC(n2cc(F)c(=O)[nH]c2=O)C(O)C1O (centres undefined)", "subject.of.test": "HCI09", "answer.label": "satisfied"}
{"compound": "Cl.c1ccc2c(CC3=NCCN3)cccc2c1 [Naphazoline HCl]", "subject.of.test": "HCI09", "answer.label": "not satisfied"}
{"compound": "NC(=O)Cc1cccc(C(=O)c2ccccc2)c1N", "subject.of.test": "HCI09", "answer.label": "satisfied"}
{"compound": "O=c1cc[nH]c(=O)[nH]1", "subject.of.test": "HCI09", "answer.label": "not satisfied"}
{"compound": "CCOC(=O)n1ccn(C)c1=S", "subject.of.test": "HCI09", "answer.label": "satisfied"}
{"compound": "CC(C)NCC(O)COc1ccc(CCOCC2CC2)cc1.Cl (centres undefined) [Betaxolol HCl]", "subject.of.test": "HCI09", "answer.label": "not satisfied"}
{"compound": "O=C(NCCO[N+](=O)[O-])c1cccnc1", "subject.of.test": "HCI09", "answer.label": "satisfied"}
{"compound": "CC(C)(Oc1ccc(C2CC2(Cl)Cl)cc1)C(=O)O (centres undefined) [Ciprofibrate]", "subject.of.test": "HCI09", "answer.label": "satisfied"}
{"compound": "CCCCc1nc(Cl)c(CO)n1Cc1ccc(-c2ccccc2-c2nnn[n-]2)cc1.[K+]", "subject.of.test": "HCI09", "answer.label": "not satisfied"}
{"compound": "COc1ccccc1N1CCN(CCCNc2cc(=O)n(C)c(=O)n2C)CC1.Cl [Urapidil HCl]", "subject.of.test": "HCI09", "answer.label": "satisfied"}
{"compound": "CCN(CC)CCNC(=O)c1ccc(N)cc1.Cl [Procainamide HCl]", "subject.of.test": "HCI09", "answer.label": "not satisfied"}
{"compound": "C#C[C@]1(O)CC[C@H]2[C@@H]3CCC4=CCCC[C@@H]4[C@H]3C(=C)C[C@@]21CC", "subject.of.test": "HCI09", "answer.label": "satisfied"}
{"compound": "Br.CN(C)CCC[C@]1(c2ccc(F)cc2)OCc2cc(C#N)ccc21 [Citalopram hydrobromide]", "subject.of.test": "HCI09", "answer.label": "satisfied"}
{"compound": "CCC(Nc1ncnc2nc[nH]c12)c1nc2cccc(F)c2c(=O)n1-c1ccccc1 (centres undefined)", "subject.of.test": "HCI09", "answer.label": "satisfied"}

* * *

Tested on: HCI13 (cells of an ER-positive luminal breast cancer xenograft)
Assay: cell viability (% of vehicle); higher = less cytotoxic
Conditions: 10 µM; 72 h
So basically: is cell viability under 90? Then y. Not under? Then n.

{"compound": "C=C1c2cccc(O)c2C(O)=C2C(=O)C3(O)C(O)=C(C(N)=O)C(=O)C(N(C)C)C3C(O)C12.Cl (stereo unspecified) [Methacycline HCl]", "answer.label": "n"}
{"compound": "Cc1ccc(NC(=O)c2ccc(CN3CCN(C)CC3)cc2)cc1Nc1nccc(-c2cccnc2)n1 [Imatinib (STI571)]", "answer.label": "n"}
{"compound": "Nc1nc(F)nc2c1ncn2C1OC(COP(=O)(O)O)C(O)C1O (stereo unspecified) [Fludarabine Phosphate (Fludara)]", "answer.label": "n"}
{"compound": "CN1CCN(C2=Nc3ccccc3Oc3ccc(Cl)cc32)CC1.O=C(O)CCC(=O)O [Loxapine Succinate]", "answer.label": "y"}
{"compound": "Cc1cccc(C)c1OCC(=O)NC(Cc1ccccc1)C(O)CC(Cc1ccccc1)NC(=O)C(C(C)C)N1CCCNC1=O (stereo unspecified) [Lopinavir]", "answer.label": "n"}

* * *

Each item that follows carries a reported cell viability.
Test system: WHIM30 (cells of a triple-negative basal-like breast cancer xenograft)
Assay: cell viability (% of vehicle); higher = less cytotoxic
Details: 10 µM; 72 h
endpoint: cell viability

{"molecule": "CCN(CC)CCCC(C)Nc1ccnc2cc(Cl)ccc12.O=P(O)(O)O.O=P(O)(O)O (centres undefined) [Chloroquine diphosphate]", "assay.result": 74.5}
{"molecule": "CN(CCOc1ccc(NS(C)(=O)=O)cc1)CCc1ccc(NS(C)(=O)=O)cc1 [Dofetilide]", "assay.result": 106}
{"molecule": "CCCCC(=O)OC1(C(=O)CO)C(C)CC2C3CCC4=CC(=O)C=CC4(C)C3(F)C(O)CC21C (centres undefined) [Betamethasone Valerate]", "assay.result": 194}
{"molecule": "CN1C[C@@H]2c3ccccc3Oc3ccc(Cl)cc3[C@H]2C1.O=C(O)/C=C/C(=O)O [Asenapine]", "assay.result": 114}
{"molecule": "C=C(c1ccc(C(=O)O)cc1)c1cc2c(cc1C)C(C)(C)CCC2(C)C [Bexarotene]", "assay.result": 93.8}
{"molecule": "O=C(O)CCNC(=O)c1ccccc1 [Betamipron]", "assay.result": 108}
{"molecule": "CC(=O)Nc1cccc(-n2c(=O)n(C3CC3)c(=O)c3c(Nc4ccc(I)cc4F)n(C)c(=O)c(C)c32)c1", "assay.result": 133}
{"molecule": "COc1ccc2cccc(CCNC(C)=O)c2c1 [Agomelatine]", "assay.result": 136}
{"molecule": "CN1CC(=O)N2[C@H](c3ccc4c(c3)OCO4)c3[nH]c4ccccc4c3C[C@@H]2C1=O [Tadalafil]", "assay.result": 105}
{"molecule": "COCCc1ccc(OCC(O)CNC(C)C)cc1.COCCc1ccc(OCC(O)CNC(C)C)cc1.O=C(O)C(O)C(O)C(=O)O (centres undefined) [Metoprolol Tartrate]", "assay.result": 107}
{"molecule": "CNC(C)C1CCC(N)C(OC2C(N)CC(N)C(OC3OCC(C)(O)C(NC)C3O)C2O)O1.O=S(=O)(O)O (centres undefined) [Gentamycin Sulfate]", "assay.result": 116}
{"molecule": "Cc1onc(-c2ccccc2)c1-c1ccc(S(N)(=O)=O)cc1 [Valdecoxib]", "assay.result": 78.9}
{"molecule": "CC(C)c1nc(CN(C)C(=O)NC(C(=O)NC(Cc2ccccc2)CC(O)C(Cc2ccccc2)NC(=O)OCc2cncs2)C(C)C)cs1 (centres undefined) [Ritonavir]", "assay.result": 82}
{"molecule": "CCn1cc(C(=O)O)c(=O)c2cc(F)c(N3CCNC(C)C3)c(F)c21.Cl (centres undefined) [Lomefloxacin HCl]", "assay.result": 150}
{"molecule": "CC1(C)SC2C(NC(=O)C(NC(=O)N3CCNC3=O)c3ccccc3)C(=O)N2C1C(=O)[O-].[Na+] (centres undefined) [Azlocillin sodium salt]", "assay.result": 125}
{"molecule": "O=C(O)/C=C/c1ccc(O)c(O)c1 [Caffeic acid]", "assay.result": 89.4}
{"molecule": "CC12C=CC(=O)C=C1CCC1C2C(=O)CC2(C)C1CCC2(O)C(=O)CO (centres undefined) [Prednisone]", "assay.result": 130}
{"molecule": "CC(C)Cc1ccc(C(C)C(=O)O)cc1.NCCCCC(N)C(=O)O (centres undefined) [Ibuprofen Lysine]", "assay.result": 170}
{"molecule": "COc1c(N2CC3CCCNC3C2)c(F)cc2c(=O)c(C(=O)O)cn(C3CC3)c12.Cl (centres undefined) [Moxifloxacin HCl]", "assay.result": 134}
